I'd be grateful if you could share measured viability, T/C for these entries.
System: NCI-H196 complex spheroids with HUVEC/MSC, growth % T/C
Test: Anticancer human tumor NCI-H196 cell line growth inhibition [Asc];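 note: spheroids exposed to compound for 7 days before measurement; 100% = DMSO vehicle control wells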
Conditions: second compound 0.949 µM; first compound 0.0316 µM; active compounds read low
Provide only the numeric value, understood in %.

Inquiry: Name the reported viability, T/C value associated with the compound O=C(c1ccc(F)c(F)c1Nc1ccc(I)cc1F)N1CC(O)([C@@H]2CCCCN2)C1 + CCN1C(C(=O)NC23CCC(C(=O)O)(CC2)CC3)C(c2cccc(Cl)c2F)C2(C(=O)Nc3cc(Cl)ccc32)C12CCCCC2
Reply text: 125

Inquiry: Name the reported viability, T/C value associated with the compound C=CC(=O)N1CCN(c2nc(=O)n(-c3c(C)ccnc3C(C)C)c3nc(-c4c(O)cccc4F)c(F)cc23)C(C)C1 (centres undefined) + CCN1C(C(=O)NC23CCC(C(=O)O)(CC2)CC3)C(c2cccc(Cl)c2F)C2(C(=O)Nc3cc(Cl)ccc32)C12CCCCC2
Reply text: 123

Inquiry: Name the reported viability, T/C value associated with the compound COc1c(OCCCN2CCOCC2)ccc2c3n(c(=NC(=O)c4cnc(N)nc4)nc12)CCN3 + CCN1C(C(=O)NC23CCC(C(=O)O)(CC2)CC3)C(c2cccc(Cl)c2F)C2(C(=O)Nc3cc(Cl)ccc32)C12CCCCC2
Reply text: 94.9

Inquiry: Name the reported viability, T/C value associated with the compound C#Cc1c(F)ccc2cc(O)cc(-c3ncc4c(N5CC6CCC(C5)N6)nc(OCC56CCCN5CC(F)C6)nc4c3F)c12 (centres undefined) + CCN1C(C(=O)NC23CCC(C(=O)O)(CC2)CC3)C(c2cccc(Cl)c2F)C2(C(=O)Nc3cc(Cl)ccc32)C12CCCCC2
Reply text: 123
